The entries below come with measured inhibition of syndrome at 50 mg/kg values attached.
test system: pCA-induced 5-HT syndrome; test: Inhibition of p-chloroamphetamine (pCA)-induced stereotypy in rats, p.o.; format: in vivo, male Sprague-Dawley rats; settings: 50 mg/kg p.o., rats
measurement_kind: inhibition of syndrome at 50 mg/kg (%)

structure_as_smiles=O=C(NC(=O)c1ccc2ncccc2c1)NC1CCN(Cc2ccc3cc(F)ccc3c2)CC1 readout_number=99
structure_as_smiles=O=C(NC(=O)c1ccc2ncccc2c1)NC1CCN(Cc2ccc3ccccc3c2)CC1 readout_number=99
structure_as_smiles=O=C(NC(=O)c1ccc2ncccc2c1)NC1CCN(Cc2ccc3ncccc3c2)CC1 readout_number=99
